# TARGET_OF_ASSAY: full length human PD-1 on HEK293/hPD-1 cells (human, UniProt Q15116 25-288)
# Sequence (Q15116 25-288 limits assumed): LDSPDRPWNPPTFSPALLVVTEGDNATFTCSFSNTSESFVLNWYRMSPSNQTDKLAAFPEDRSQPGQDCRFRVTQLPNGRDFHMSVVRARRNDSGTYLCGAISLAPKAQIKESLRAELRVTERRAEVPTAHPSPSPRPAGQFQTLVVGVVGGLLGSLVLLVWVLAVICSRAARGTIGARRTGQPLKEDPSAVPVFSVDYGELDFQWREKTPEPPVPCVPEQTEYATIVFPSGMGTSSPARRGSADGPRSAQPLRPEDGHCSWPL
# MEASUREMENT_DESCRIPTION: FACS dose response, HEK293/hPD-1 cells
PARAMETER: pEC50
pEC50 is a log-scale quantity: -log10 of the concentration expressed in molar.

Answered examples (3):
H2aM7780N (antibody, V domains shown, human variable regions, mouse IgG2a Fc; also called H2M7780N) VH: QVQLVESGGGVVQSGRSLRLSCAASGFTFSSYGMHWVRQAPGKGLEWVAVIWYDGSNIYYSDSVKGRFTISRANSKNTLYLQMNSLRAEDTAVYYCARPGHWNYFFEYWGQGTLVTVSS VL: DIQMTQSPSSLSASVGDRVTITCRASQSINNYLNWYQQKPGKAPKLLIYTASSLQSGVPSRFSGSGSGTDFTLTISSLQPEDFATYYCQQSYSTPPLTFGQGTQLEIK = 8.77
H1M7800N (antibody, V domains shown, human variable regions, mouse IgG1 Fc) VH: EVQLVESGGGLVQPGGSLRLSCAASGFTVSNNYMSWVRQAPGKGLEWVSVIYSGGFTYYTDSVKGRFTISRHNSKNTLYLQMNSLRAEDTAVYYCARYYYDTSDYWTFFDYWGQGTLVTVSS VL: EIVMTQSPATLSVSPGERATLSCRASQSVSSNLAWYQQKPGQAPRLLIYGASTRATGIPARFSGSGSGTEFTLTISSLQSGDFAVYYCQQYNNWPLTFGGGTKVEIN = 10.32
H1M7799N (antibody, V domains shown, human variable regions, mouse IgG1 Fc) VH: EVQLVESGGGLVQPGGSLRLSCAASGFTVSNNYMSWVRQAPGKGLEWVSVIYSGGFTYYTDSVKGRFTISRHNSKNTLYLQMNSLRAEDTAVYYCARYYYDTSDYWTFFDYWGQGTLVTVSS VL: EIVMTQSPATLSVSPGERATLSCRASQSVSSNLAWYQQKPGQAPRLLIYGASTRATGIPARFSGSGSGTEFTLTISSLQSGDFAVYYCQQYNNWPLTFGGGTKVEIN = 10.48

Query binder follows.
Query: Note down pEC50 recorded for H2aM7798N (antibody, V domains shown, human variable regions, mouse IgG2a Fc; also called H2M7798N) VH: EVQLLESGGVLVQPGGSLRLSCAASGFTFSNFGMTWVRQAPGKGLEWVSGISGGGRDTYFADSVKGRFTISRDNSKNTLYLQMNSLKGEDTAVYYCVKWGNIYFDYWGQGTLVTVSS VL: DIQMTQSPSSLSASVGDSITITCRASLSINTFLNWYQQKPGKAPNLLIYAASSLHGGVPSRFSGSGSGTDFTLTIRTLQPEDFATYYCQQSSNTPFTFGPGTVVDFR
Result: 10.16
